Just for reference, patent US20130330346A1 is where these values come from.

Target: T1, Human CXCR2 (human, UniProt P25025 1-360)
T1 sequence: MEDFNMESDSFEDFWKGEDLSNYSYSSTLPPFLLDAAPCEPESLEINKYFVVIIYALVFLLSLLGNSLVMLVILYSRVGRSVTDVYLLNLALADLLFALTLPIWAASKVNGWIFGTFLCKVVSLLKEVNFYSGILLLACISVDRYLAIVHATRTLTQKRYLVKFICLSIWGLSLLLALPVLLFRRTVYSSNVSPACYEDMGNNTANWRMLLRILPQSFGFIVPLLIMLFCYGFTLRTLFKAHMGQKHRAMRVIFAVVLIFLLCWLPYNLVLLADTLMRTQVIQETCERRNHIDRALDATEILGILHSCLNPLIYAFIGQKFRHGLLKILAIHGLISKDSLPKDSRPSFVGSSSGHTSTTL
Assay: cell-based or functional assay
EXPERIMENTAL ENDPOINT: FLIPR IC50 (GRO-α induced calcium release) (nM)
Only the number, expressed in nM, is required.

The recorded FLIPR IC50 (GRO-α induced calcium release) for entry CXCR20034 (bispecific antibody, Biparatopic: two VHH joined by a GlySer linker; also called 163D2-35GS-2B2; 163D2-2B2; not shown: C-terminal c-myc tag and His6 tag coded by pAX100) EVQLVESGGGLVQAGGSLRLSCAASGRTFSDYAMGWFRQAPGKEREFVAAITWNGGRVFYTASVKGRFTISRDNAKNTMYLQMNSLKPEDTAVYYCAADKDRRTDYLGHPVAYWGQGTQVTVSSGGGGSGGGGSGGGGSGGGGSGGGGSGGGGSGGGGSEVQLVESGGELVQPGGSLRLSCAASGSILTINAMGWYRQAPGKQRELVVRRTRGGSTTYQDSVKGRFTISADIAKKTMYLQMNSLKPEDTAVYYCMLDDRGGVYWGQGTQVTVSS equals 11.8
